- Method: Recovery over time from exposure to cell culture media without cells (GC-MS/MS)
- Format: physicochemical
- Conditions Used: Solvent Extract (DMSO, 15 ng/mL each PAH); one phase decay fit of nominal recovery (text: ng/mL)
// values below are reported Plateau
Give only the figure.

Completed entries (count: 3):
[
  {
    "Compound": "c1ccc2cc3c(cc2c1)-c1cccc2cccc-3c12 [Benzo[k]fluoranthene]",
    "Quantity Kind": "Plateau",
    "Assay Value": 4.199
  },
  {
    "Compound": "c1ccc2c(c1)ccc1ccccc12",
    "Quantity Kind": "Plateau",
    "Assay Value": 2.716
  },
  {
    "Compound": "Cc1cccc2ccccc12",
    "Quantity Kind": "Plateau",
    "Assay Value": 2.307
  }
]

Consider c1ccc2c(c1)Cc1ccccc1-2 . Its measured Plateau is 3.728

# Plateau (compound: c1cc2c3c(cccc3c1)CC2 ) is 2.58

Plateau reading for c1ccc2ccccc2c1 : 3.339

Looking up c1ccc2cc3ccccc3cc2c1 , I found its Plateau recorded as 2.703

Value of measured Plateau for the entry C1=Cc2cccc3cccc1c23 : 2.66

Lab note: c1ccc2c(c1)cc1ccc3cccc4ccc2c1c34 [Benzo[a]pyrene] gave Plateau of 6.176

// c1ccc2c(c1)-c1cccc3cccc-2c13 : Plateau value = 2.835
